target: UniProt:P29275; assay: Adenosine A2B Receptor Cyclic AMP GS Assay; conditions: HEK-293 cells expressing human A2B receptor; agonist NECA at 12 nM; cAMP accumulation (FRET); read-out: A2B_cAMP_EC50
Sequence (P29275 whole entry): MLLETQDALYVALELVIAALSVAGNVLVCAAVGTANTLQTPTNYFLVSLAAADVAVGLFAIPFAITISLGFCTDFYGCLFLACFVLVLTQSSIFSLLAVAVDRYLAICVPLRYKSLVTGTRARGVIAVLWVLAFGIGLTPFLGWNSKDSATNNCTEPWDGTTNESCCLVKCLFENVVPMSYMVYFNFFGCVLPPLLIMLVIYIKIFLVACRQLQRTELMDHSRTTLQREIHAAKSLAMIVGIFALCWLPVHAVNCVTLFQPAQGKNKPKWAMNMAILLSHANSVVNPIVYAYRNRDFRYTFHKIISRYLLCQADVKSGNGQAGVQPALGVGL
endpoint: EC50

[[record]]
molecule = "N#Cc1cccc(-c2nc(N)n3nc(Cc4c(F)cccc4CN4C(=O)CNC4=O)nc3c2-c2ccncn2)c1"
measurement_target = "UniProt:P29275"
endpoint = "EC50"
result = "< 10 nM"

[[record]]
molecule = "N#Cc1cccc(-c2nc(N)n3nc(Cc4ccccc4F)nc3c2-c2ccncn2)c1"
measurement_target = "UniProt:P29275"
endpoint = "EC50"
result = "< 10 nM"

[[record]]
molecule = "CCNC(=O)c1cn2c(N)nc(-c3cccc(C#N)c3)c(-c3ccncc3F)c2n1"
measurement_target = "UniProt:P29275"
endpoint = "EC50"
result = "< 10 nM"

[[record]]
molecule = "Cc1cccc(COc2nc3c(-c4ccncn4)c(-c4cccc(C#N)c4)nc(N)n3n2)n1"
measurement_target = "UniProt:P29275"
endpoint = "EC50"
result = "< 10 nM"

[[record]]
molecule = "CCNC(=O)c1nc2c(-c3cc(C)nc(C)c3)c(-c3ccccc3)nc(N)n2c1C#N"
measurement_target = "UniProt:P29275"
endpoint = "EC50"
result = "> 1000 nM"

[[record]]
molecule = "N#Cc1cccc(-c2nc(N)n3nc(Cc4c(F)cccc4CN4C[C@@H](O)[C@H](F)C4)nc3c2-c2ccncn2)c1"
measurement_target = "UniProt:P29275"
endpoint = "EC50"
result = "10 to 100 nM"

[[record]]
molecule = "COc1cc(-c2c(-c3cccc(C#N)c3)nc(N)n3nc(Cc4ccccn4)nc23)cc(C)n1"
measurement_target = "UniProt:P29275"
endpoint = "EC50"
result = "10 to 100 nM"

[[record]]
molecule = "CCNC(=O)c1nc2c(-c3ccnc(OC)c3)c(-c3cccc(C#N)c3)nc(N)n2c1OCCO"
measurement_target = "UniProt:P29275"
endpoint = "EC50"
result = "10 to 100 nM"

[[record]]
molecule = "CCn1nncc1-c1c(-c2cccc(C#N)c2)nc(N)n2nc(Cc3ccccn3)nc12"
measurement_target = "UniProt:P29275"
endpoint = "EC50"
result = "10 to 100 nM"

[[record]]
molecule = "COc1cccc(-c2nc(N)n3ccnc3c2-c2ccncc2)c1"
measurement_target = "UniProt:P29275"
endpoint = "EC50"
result = "< 10 nM"

[[record]]
molecule = "N#Cc1cccc(-c2nc(N)n3nc(C(O)c4ccccc4)nc3c2-c2ncncc2F)c1 (stereo not drawn)"
measurement_target = "UniProt:P29275"
endpoint = "EC50"
result = "< 10 nM"

[[record]]
molecule = "N#Cc1cccc(-c2nc(N)n3nc(Cc4c(F)cccc4CN4CCCS4(=O)=O)nc3c2-c2ccncn2)c1"
measurement_target = "UniProt:P29275"
endpoint = "EC50"
result = "< 10 nM"

